assay_target: UniProt P30530
assay_name: Biochemical potency, HTRF KinEASE-TK kinase assay
Parameters: purchased Invitrogen
experimental_parameters: 5 nM AXL, 700 μM ATP

| smiles_code | IC50 |
| --- | --- |
| CC(C)(O)c1cccnc1-c1ccc(-c2n[nH]c3ncc(-c4ccc5c(c4)CC[C@@H](N4C6COCC4C6)CC5)cc23)cc1 | < 100 nM |
| Cc1cnc(-c2ccc(-c3n[nH]c4ncc(-c5ccc6c(c5)CC[C@@H](N5CCCC5)CC6)cc34)cc2)c(C)n1 | < 100 nM |
| Cc1ccc(C)c(-c2ccc(-c3n[nH]c4ncc(-c5ccc6c(c5)CC[C@@](C)(N5CCC[C@H]5C)CC6)cc34)cc2)n1 | < 100 nM |

###

assay_target: recombinant human MER (Homo sapiens, UniProt Q12866)
Sequence (Q12866 21-999): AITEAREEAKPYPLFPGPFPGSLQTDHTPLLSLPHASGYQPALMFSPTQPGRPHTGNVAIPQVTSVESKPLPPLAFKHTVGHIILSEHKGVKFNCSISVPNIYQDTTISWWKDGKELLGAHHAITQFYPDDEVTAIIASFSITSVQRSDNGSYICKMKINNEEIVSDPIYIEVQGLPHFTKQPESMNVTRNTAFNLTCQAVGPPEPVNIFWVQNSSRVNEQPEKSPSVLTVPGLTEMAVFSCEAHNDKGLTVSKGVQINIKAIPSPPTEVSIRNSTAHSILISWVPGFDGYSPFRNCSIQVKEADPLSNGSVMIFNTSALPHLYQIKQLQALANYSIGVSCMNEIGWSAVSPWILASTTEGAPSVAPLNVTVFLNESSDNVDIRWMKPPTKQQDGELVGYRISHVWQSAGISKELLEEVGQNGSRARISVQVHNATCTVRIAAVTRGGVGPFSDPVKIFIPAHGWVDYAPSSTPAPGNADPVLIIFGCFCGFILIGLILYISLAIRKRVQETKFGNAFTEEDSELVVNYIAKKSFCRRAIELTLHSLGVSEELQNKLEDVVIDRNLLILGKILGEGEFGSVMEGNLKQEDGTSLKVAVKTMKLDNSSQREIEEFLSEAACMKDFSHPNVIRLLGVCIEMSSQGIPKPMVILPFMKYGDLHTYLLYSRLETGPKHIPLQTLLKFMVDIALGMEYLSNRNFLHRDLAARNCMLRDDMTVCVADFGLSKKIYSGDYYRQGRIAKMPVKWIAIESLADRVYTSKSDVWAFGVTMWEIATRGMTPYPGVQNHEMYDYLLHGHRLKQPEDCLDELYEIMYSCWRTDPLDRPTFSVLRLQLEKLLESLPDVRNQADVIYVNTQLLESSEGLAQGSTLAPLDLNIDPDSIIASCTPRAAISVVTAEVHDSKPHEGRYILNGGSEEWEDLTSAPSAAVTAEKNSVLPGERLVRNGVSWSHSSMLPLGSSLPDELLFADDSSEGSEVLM
assay_name: Biochemical potency, HTRF KinEASE-TK kinase assay
experimental_parameters: 1 nM MER, 700 μM ATP
Below: a set of entries, each annotated with reported IC50.

| smiles_code | IC50 |
| --- | --- |
| c1cncc(-c2ccc(-c3c[nH]c4ncc(-c5ccc6c(c5)CC[C@@H](N5C7COCC5C7)CC6)cc34)cc2)c1 | > 1 µM |
| Cc1cnc(C)c(-c2ccc(-c3c[nH]c4ncc(-c5ccc6c(c5)CC[C@@](C)(N5CCC[C@H]5C)CC6)cc34)cc2)n1 | 0.1 to 1 µM |
| FC(F)Oc1cccnc1-c1ccc(-c2n[nH]c3ncc(-c4ccc5c(c4)CC[C@@H](N4C6COCC4C6)CC5)cc23)cc1 | 0.1 to 1 µM |
| Cc1cccc(-c2ccc(-c3n[nH]c4ncc(-c5ccc6c(c5)CC[C@@H](N5C7COCC5C7)CC6)cc34)cc2)n1 | 0.1 to 1 µM |

###

assay_target: recombinant human MER (Homo sapiens)
Construct: purchased Invitrogen
assay_name: Biochemical potency, HTRF KinEASE-TK kinase assay
experimental_parameters: 1 nM MER, 700 μM ATP
pIC50: −log10 of the molar value.
measured_endpoint: pIC50

| smiles_code | measured_endpoint | endpoint_value |
| --- | --- | --- |
| Cc1ccccc1-c1ccc(-c2n[nH]c3ncc(-c4ccc5c(c4)CC[C@@H](N4C6COCC4C6)CC5)cc23)nc1 | pIC50 | < 6.00 |
| CC(C)(O)c1cccnc1-c1ccc(-c2n[nH]c3ncc(-c4ccc5c(c4)CC[C@@H](N4C6COCC4C6)CC5)cc23)cc1 | pIC50 | 6.00 to 7.00 |
| Cc1cnc(-c2ccc(-c3c[nH]c4ncc(-c5ccc6c(c5)CC[C@@H](N5CCCC5)CC6)cc34)cc2)c(C)n1 | pIC50 | 6.00 to 7.00 |
| Cc1ccnc(-c2ccc(-c3n[nH]c4ncc(-c5ccc6c(c5)CC[C@@H](N5C7COCC5C7)CC6)cc34)cc2)c1C | pIC50 | 6.00 to 7.00 |
| Cc1nccnc1-c1ccc(-c2n[nH]c3ncc(-c4ccc5c(c4)CC[C@@H](N4C6COCC4C6)CC5)cc23)nc1 | pIC50 | < 6.00 |
| CS(=O)(=O)c1cccnc1-c1ccc(-c2n[nH]c3ncc(-c4ccc5c(c4)CC[C@@H](N4C6COCC4C6)CC5)cc23)cc1 | pIC50 | 6.00 to 7.00 |

###

Below: a set of entries, each annotated with reported IC50.
assay_target: p-AXL (Homo sapiens, UniProt P30530)
Sequence (P30530 26-894): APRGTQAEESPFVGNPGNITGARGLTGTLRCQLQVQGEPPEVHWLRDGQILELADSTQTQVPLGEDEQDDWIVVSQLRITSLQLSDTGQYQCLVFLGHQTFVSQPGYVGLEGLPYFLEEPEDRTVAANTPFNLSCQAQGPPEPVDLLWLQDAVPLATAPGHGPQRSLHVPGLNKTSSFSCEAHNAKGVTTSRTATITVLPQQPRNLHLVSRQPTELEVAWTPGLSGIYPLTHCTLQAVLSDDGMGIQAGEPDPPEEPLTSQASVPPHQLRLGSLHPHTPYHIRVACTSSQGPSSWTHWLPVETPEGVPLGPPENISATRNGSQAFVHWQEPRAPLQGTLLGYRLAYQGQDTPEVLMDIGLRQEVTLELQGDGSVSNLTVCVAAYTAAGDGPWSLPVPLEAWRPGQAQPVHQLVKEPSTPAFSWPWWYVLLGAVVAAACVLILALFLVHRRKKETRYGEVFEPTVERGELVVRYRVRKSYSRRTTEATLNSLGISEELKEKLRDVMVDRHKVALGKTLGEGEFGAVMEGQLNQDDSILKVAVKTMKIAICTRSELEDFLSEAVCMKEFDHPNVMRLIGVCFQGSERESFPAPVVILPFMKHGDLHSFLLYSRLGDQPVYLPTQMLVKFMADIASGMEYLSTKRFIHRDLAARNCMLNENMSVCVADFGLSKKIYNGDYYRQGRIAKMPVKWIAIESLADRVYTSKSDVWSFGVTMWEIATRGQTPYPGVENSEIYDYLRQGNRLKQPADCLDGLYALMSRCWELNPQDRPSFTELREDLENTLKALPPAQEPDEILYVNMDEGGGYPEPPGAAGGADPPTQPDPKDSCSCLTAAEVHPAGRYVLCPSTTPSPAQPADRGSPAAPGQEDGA
assay_name: Axl phosphorylation inhibition ELISA in HEK293T cells transfected with NanoLuc-tagged AXL
experimental_parameters: 1 h compound incubation, media (OptiMEM)

| molecule | IC50 |
| --- | --- |
| Cc1cccnc1-c1ccc(-c2c[nH]c3ncc(-c4ccc5c(c4)CC[C@@H](N[C@H]4CCCOC4)CC5)cc23)cc1 [Example 186] | 100 to 1000 nM |
| Cc1cc(F)cnc1-c1ccc(-c2c[nH]c3ncc(-c4ccc5c(c4)CC[C@@](C)(N4CCC[C@H]4C)CC5)cc23)cc1 [Example 34] | < 100 nM |
| Cc1cnc(C)c(-c2ccc(-c3c[nH]c4ncc(-c5ccc6c(c5)CC[C@@H](N5C7COCC5C7)CC6)cc34)nc2)n1 [Example 69] | 100 to 1000 nM |
| Cc1ccc(C)c(-c2ccc(-c3n[nH]c4ncc(-c5ccc6c(c5)CC[C@@](C)(N5CCC[C@H]5C)CC6)cc34)cc2)n1 [Example 136] | < 100 nM |
| COC[C@H]1CCN([C@H]2CCc3ccc(-c4cnc5[nH]cc(-c6ccc(-c7nc(C)cnc7C)cc6)c5c4)cc3CC2)C1 [Example 63] | < 100 nM |
| Cc1cccnc1-c1ccc(-c2c[nH]c3nnc(-c4ccc5c(c4)CC[C@@H](N4C6COCC4C6)CC5)cc23)cc1 [Example 36] | > 1000 nM |
| Cc1cccnc1-c1ncc(-c2c[nH]c3ncc(-c4ccc5c(c4)CC[C@@H](N4C6COCC4C6)CC5)cc23)cn1 [Example 38] | < 100 nM |
| Cc1cc(F)cnc1-c1ccc(-c2n[nH]c3ncc(-c4ccc5c(c4)CC[C@@H](N4C6COCC4C6)CC5)cc23)cc1 [Example 28] | 100 to 1000 nM |
| Cc1cccnc1-c1cnc(-c2c[nH]c3ncc(-c4ccc5c(c4)CC[C@@H](N4C6COCC4C6)CC5)cc23)nc1 [Example 37] | < 100 nM |
| O=C(c1cccnc1-c1ccc(-c2c[nH]c3ncc(-c4ccc5c(c4)CC[C@@H](N4C6COCC4C6)CC5)cc23)cc1)N1CCCC1 [Example 171] | < 100 nM |
| Cc1cccnc1-c1ccc(-c2n[nH]c3ncc(-c4ccc5c(c4)CC[C@@H](N[C@H]4CCCOC4)CC5)cc23)nc1 [Example 106] | < 100 nM |
| C[C@@H]1CCCN1[C@@]1(C)CCc2ccc(-c3cnc4[nH]nc(-c5ccc(-c6ncnn6C)cc5)c4c3)cc2CC1 [Example 112] | < 100 nM |
| Cc1cnc(C)c(-c2ccc(-c3c[nH]c4ncc(-c5ccc6c(c5)CC[C@@H](N5C[C@@H]7C[C@H]5CO7)CC6)cc34)cc2)n1 [Example 62] | < 100 nM |
